Test: Inhibition of wild type HIV-1 clade B NL4-3 Gag polyprotein SP1 infected in human MT4 cells
Format: cell-based
Settings: Human immunodeficiency virus 1, clade B NL4-3, MT4
REPORTED METRIC: IC50 (nM)
Please reply with the bare figure in nM and do not write the unit itself.

The following compounds have reported results that may help.
[[record]]
compound = "CC(C)C1=C2[C@H]3CC[C@@H]4[C@@]5(C)CC[C@H](OC(=O)CC(C)(C)C(=O)O)C(C)(C)[C@@H]5CC[C@@]4(C)[C@]3(C)CC[C@@]2(C(=O)C(=O)NC2CCCCC2)CC1=O"
measurement = 28

[[record]]
compound = "CC(C)C1=C2[C@H]3CC[C@@H]4[C@@]5(C)CC[C@H](OC(=O)CC(C)(C)C(=O)O)C(C)(C)[C@@H]5CC[C@@]4(C)[C@]3(C)CC[C@@]2(C(=O)C(=O)N[C@@H](C)c2ccc(Cl)cc2)CC1=O"
measurement = 39

[[record]]
compound = "CC(C)C1=C2[C@H]3CC[C@@H]4[C@@]5(C)CC[C@H](OC(=O)CC(C)(C)C(=O)O)C(C)(C)[C@@H]5CC[C@@]4(C)[C@]3(C)CC[C@@]2(C(=O)C(=O)NC(C)(C)c2ccc(Cl)cc2)CC1=O"
measurement = 19

[[record]]
compound = "CC(C)C1=C2[C@H]3CC[C@@H]4[C@@]5(C)CC[C@H](OC(=O)CC(C)(C)C(=O)O)C(C)(C)[C@@H]5CC[C@@]4(C)[C@]3(C)CC[C@@]2(C(=O)C(=O)NC2(c3ccc(Cl)cc3)CC2)CC1=O"
measurement = 17

[[record]]
compound = "C=C(C)[C@@H]1CC[C@]2(C(=O)O)CC[C@]3(C)[C@H](CC[C@@H]4[C@@]5(C)CC[C@H](OC(=O)CC(C)(C)C(=O)O)C(C)(C)[C@@H]5CC[C@]43C)[C@@H]12 [BEVIRIMAT]"
measurement = 270


Input line: Retrieve IC50 measured for CC(C)C1=C2[C@H]3CC[C@@H]4[C@@]5(C)CC[C@H](OC(=O)CC(C)(C)C(=O)O)C(C)(C)[C@@H]5CC[C@@]4(C)[C@]3(C)CC[C@@]2(C(=O)C(=O)Nc2ccc(F)cc2)CC1=O and print it.
Output line: 130

* * *

Assay: Inhibition of wild type HIV-1 clade B NL4-3 Gag polyprotein SP1 infected in human MT4 cells
Assay type: cell-based
Details: Human immunodeficiency virus 1, clade B NL4-3, MT4
REPORTED METRIC: IC50 (nM)
Please reply with the bare figure in nM and do not write the unit itself.

The following compounds have reported results that may help.
[[record]]
chemical_string = "CC[C@@H](NC(=O)C(=O)[C@@]12CC[C@]3(C)[C@H](CC[C@@H]4[C@@]5(C)CC[C@H](OC(=O)CC(C)(C)C(=O)O)C(C)(C)[C@@H]5CC[C@]43C)C1=C(C(C)C)C(=O)C2)c1ccc(Cl)cc1"
reported_metric = "IC50"
measurement = 28

[[record]]
chemical_string = "CC[C@H](NC(=O)C(=O)[C@@]12CC[C@]3(C)[C@H](CC[C@@H]4[C@@]5(C)CC[C@H](OC(=O)CC(C)(C)C(=O)O)C(C)(C)[C@@H]5CC[C@]43C)C1=C(C(C)C)C(=O)C2)c1ccc(Cl)cc1"
reported_metric = "IC50"
measurement = 54

[[record]]
chemical_string = "CC(C)C1=C2[C@H]3CC[C@@H]4[C@@]5(C)CC[C@H](OC(=O)CC(C)(C)C(=O)O)C(C)(C)[C@@H]5CC[C@@]4(C)[C@]3(C)CC[C@@]2(C(=O)C(=O)NCc2ccncc2)CC1=O"
reported_metric = "IC50"
measurement = 6200


Pending compound:
Input line: Retrieve IC50 measured for CC(C)C1=C2[C@H]3CC[C@@H]4[C@@]5(C)CC[C@H](OC(=O)CC(C)(C)C(=O)O)C(C)(C)[C@@H]5CC[C@@]4(C)[C@]3(C)CC[C@@]2(C(=O)C(=O)NC2(c3ccc(Cl)cc3)CCCC2)CC1=O and print it.
Output line: 66

The reported numbers originate from ChEMBL document CHEMBL4024732.
